Value source: paper PMC8300687

Measured log10 of IC50 of individual entries
Target: S. aureus DNA gyrase (Staphylococcus aureus, UniProt P20831)
Construct: purchased Inspiralis (Norwich, UK)
Sequence (P20831 whole entry): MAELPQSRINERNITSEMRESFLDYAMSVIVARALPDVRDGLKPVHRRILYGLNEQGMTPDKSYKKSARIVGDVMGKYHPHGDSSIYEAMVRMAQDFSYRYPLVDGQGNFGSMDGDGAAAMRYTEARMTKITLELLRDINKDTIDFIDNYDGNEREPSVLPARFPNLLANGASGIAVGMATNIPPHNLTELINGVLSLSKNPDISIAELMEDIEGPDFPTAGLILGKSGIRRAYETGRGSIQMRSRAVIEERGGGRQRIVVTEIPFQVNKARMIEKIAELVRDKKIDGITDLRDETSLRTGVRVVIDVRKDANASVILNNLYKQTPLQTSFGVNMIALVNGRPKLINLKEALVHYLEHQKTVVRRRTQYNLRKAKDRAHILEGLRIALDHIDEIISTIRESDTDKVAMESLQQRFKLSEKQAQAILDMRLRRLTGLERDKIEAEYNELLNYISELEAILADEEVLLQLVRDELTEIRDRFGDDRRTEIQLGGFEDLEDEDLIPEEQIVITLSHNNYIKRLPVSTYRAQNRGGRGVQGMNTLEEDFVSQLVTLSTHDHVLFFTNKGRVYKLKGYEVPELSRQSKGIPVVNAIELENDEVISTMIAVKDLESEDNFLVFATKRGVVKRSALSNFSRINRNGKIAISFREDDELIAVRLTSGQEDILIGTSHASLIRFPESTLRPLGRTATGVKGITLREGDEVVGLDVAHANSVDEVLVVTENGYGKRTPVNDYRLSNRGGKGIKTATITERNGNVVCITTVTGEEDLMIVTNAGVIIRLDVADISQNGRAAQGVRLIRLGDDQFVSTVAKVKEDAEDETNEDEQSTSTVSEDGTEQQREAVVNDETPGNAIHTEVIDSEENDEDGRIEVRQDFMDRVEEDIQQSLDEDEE
Sequence (P0A0K8 whole entry partner): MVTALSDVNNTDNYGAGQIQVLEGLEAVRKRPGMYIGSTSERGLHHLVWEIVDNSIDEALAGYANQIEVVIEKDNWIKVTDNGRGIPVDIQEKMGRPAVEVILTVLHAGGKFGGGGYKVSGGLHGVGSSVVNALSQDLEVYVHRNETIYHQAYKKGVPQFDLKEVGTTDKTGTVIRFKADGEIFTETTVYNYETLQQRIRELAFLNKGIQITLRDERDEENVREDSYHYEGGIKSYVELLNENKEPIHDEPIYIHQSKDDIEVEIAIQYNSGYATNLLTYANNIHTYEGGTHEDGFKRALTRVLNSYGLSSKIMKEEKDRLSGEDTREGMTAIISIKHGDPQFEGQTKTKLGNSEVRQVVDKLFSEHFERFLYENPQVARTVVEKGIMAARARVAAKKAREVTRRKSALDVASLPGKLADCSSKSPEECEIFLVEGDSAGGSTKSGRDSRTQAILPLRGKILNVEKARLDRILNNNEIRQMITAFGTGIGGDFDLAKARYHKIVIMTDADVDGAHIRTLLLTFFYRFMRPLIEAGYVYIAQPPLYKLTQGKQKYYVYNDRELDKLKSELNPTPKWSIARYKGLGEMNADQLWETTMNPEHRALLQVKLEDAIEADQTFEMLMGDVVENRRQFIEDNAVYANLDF
Assay: biochemical
Format: biochemical
Conditions: fluorescence plate supercoiling assay, mean of two to four measurements
All values: base-10 log of IC50 in nM.

COc1ccc2nccc(CCN3CCC(NCc4ccc(C(F)(F)F)nc4)CC3)c2n1 [Compound 21]: 2.20
COc1ccc2nccc(CCN3CCC(NCc4ccc(OC(F)F)c(O)c4)CC3)c2n1 [Compound 20]: 2.52
COc1ccc(CNC2CCN(CCc3ccnc4ccc(OC)nc34)CC2)cn1 [Compound 22]: 2.53
COc1ccc2nccc(CCN3CCC(NCc4nc5ccccc5n4C)CC3)c2n1 [Compound 3]: 3.20
COc1ccc2nccc(CCN3CCC(NCc4cnn(-c5ccccc5)c4)CC3)c2n1 [Compound 5]: 2.52
COc1ccc2nccc(CCN3CCC(NCc4cnn(-c5ccc(F)cc5)c4)CC3)c2n1 [Compound 4]: 2.71
C=CCn1cc(CNC2CCN(CCc3ccnc4ccc(OC)nc34)CC2)cn1 [Compound 10]: 3.04

Please look at the following compound next.
Documented log10 of IC50 of COc1ccc2nccc(CCN3CCC(NCc4ccc(CO)cc4)CC3)c2n1 [Compound 16] : 3.64

* * *

molecules and their reported LE Topo IV E. coli
Target: E. coli Topo IV (Escherichia coli, UniProt P0AFI2)
Construct: purchased Inspiralis (Norwich, UK)
Sequence (P0AFI2 whole entry): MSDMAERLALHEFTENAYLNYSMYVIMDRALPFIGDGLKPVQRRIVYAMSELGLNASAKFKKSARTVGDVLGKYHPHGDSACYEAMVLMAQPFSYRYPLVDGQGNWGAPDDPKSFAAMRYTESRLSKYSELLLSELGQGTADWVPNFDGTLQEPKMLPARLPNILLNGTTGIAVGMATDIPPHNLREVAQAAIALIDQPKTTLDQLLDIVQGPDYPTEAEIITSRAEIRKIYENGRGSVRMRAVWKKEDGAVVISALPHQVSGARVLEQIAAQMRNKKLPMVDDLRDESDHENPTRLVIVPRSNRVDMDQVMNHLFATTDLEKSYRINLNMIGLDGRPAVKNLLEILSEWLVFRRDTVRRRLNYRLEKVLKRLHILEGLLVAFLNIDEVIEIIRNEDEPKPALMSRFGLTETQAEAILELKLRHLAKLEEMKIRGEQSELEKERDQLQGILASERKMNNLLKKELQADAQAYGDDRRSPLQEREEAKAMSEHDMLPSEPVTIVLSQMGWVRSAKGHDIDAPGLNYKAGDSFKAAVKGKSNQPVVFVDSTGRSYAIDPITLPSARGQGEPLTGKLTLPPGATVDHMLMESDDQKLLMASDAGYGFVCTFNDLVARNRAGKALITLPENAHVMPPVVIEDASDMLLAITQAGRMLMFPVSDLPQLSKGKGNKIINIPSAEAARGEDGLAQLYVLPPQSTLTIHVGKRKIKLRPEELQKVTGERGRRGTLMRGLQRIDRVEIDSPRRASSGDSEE
Sequence (P20083 whole entry, further chain): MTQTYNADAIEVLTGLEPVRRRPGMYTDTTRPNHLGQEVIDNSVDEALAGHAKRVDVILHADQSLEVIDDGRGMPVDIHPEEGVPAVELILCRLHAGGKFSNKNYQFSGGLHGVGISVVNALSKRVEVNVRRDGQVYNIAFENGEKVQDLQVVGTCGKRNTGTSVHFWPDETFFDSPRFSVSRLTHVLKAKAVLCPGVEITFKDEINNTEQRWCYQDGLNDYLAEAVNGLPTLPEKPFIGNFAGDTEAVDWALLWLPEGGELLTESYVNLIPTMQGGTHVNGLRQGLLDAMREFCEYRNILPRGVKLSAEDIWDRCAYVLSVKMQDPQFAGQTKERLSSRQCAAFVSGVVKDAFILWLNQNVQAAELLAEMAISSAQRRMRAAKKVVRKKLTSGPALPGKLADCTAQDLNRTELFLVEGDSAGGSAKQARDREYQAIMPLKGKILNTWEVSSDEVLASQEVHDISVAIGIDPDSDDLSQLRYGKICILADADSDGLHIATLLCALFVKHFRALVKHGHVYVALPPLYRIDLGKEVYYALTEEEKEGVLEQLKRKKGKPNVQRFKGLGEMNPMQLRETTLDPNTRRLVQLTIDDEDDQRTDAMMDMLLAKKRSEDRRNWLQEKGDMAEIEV
Assay: Topo IV Relaxation High Throughput Plate assay, E. coli
Format: biochemical
Details: LE = (1.37/HA) × pIC50

Worked examples follow.
COc1ccc2nccc(CCN3CCC(NCc4ccc(OC(F)F)c(OC)c4)CC3)c2n1: 0.28
COc1ccc2nccc(CCN3CCC(NCc4cnn(-c5ccc(F)cc5)c4)CC3)c2n1: 0.28

Record COc1ccc2nccc(CCN3CCC(NCc4cnn(-c5ccccc5)n4)CC3)c2n1 has E. coli Topo IV (Escherichia coli, UniProt P0AFI2) LE Topo IV E. coli equal to 0.28

* * *

Molecular target: Human topoisomerase IIα (Homo sapiens, UniProt P11388)
Construct: purchased Inspiralis (Norwich, UK)
Assay: Human topoisomerase II Alpha Relaxation High Throughput Plate assay
Type: biochemical
Conditions: 0.5 h; residual activity of the enzyme at compound concentration 10 μM, mean ± SD; read-out: Human Topo II (% RA)
property_label: remaining activity at 10 µM (%)
Just the number please, in %, no unit attached.

As a guide, the following entries are already answered.
COc1ccc(CNC2CCN(CCc3ccnc4ccc(OC)nc34)CC2)cn1 [Compound 22]: 97
COc1ccc2nccc(CCN3CCC(NCc4ccc(OC(F)F)c(OC)c4)CC3)c2n1 [Compound 19]: 96.4
COc1ccc2nccc(CCN3CCC(NCc4ccccc4)CC3)c2n1 [Compound 11]: 97
COc1ccc2nccc(CCN3CCC(NCc4nc5ccccc5n4C)CC3)c2n1 [Compound 3]: 94.7

Now, please, on to the next compound.
Recorded remaining activity at 10 µM (compound COc1ccc2nccc(CCN3CCC(NCc4ccc(I)cc4)CC3)c2n1 [Compound 15] ): 88.3

* * *

Target: UniProt Q12809
Sequence (Q12809 whole entry): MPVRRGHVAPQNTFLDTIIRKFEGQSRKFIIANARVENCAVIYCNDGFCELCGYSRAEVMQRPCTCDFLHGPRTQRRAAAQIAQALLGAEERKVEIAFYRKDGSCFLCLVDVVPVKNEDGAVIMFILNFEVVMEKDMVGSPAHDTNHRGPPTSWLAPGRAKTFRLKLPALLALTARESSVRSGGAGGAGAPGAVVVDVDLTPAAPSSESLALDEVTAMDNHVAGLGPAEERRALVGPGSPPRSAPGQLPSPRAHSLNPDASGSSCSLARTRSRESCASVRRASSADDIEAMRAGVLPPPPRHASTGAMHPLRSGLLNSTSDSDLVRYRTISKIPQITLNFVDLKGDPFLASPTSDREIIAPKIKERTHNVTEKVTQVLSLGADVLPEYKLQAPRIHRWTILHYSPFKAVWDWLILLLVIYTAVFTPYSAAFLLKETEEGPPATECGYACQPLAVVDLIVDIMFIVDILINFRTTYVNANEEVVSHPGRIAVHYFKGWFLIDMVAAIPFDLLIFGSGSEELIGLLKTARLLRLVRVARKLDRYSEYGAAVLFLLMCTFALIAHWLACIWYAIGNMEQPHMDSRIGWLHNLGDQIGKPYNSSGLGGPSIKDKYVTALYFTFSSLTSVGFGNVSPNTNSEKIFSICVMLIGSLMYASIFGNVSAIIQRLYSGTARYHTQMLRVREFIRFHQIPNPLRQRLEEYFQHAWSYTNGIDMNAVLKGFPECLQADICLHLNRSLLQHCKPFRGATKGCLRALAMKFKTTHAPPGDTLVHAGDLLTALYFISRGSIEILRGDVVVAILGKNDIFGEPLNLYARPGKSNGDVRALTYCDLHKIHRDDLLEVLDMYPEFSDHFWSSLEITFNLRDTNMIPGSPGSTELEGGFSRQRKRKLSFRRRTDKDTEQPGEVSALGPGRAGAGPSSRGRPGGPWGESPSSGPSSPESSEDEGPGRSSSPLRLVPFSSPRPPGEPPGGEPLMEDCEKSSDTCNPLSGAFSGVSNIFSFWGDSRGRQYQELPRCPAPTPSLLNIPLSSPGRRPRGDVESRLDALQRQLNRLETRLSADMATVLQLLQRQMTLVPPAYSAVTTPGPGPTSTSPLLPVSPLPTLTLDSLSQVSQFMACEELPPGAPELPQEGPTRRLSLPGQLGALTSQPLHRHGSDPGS
Field: label. Allowed values: satisfied (IC50 < 2 µM) or not satisfied (IC50 >= 2 µM).

COc1ccc2nccc(CCN3CCC(NCc4cnn(C(C)C)c4)CC3)c2n1: not satisfied
C=CCn1cc(CNC2CCN(CCc3ccnc4ccc(OC)nc34)CC2)cn1: not satisfied
COc1ccc2nccc(CCN3CCC(NCc4ccc(OC(F)F)c(OC)c4)CC3)c2n1: satisfied
COc1ccc2nccc(CCN3CCC(NCc4ccc(CO)cc4)CC3)c2n1: not satisfied

Shift focus to the following entry.
Prompt: Lab log: compare recorded IC50 with 2 µM; is it strictly lower for COc1ccc2nccc(CCN3CCC(NCc4ccc(OC(F)F)c(O)c4)CC3)c2n1 ?
Completion: satisfied
